Every entry's value here was drawn from patent US7432260B2.

experimental.target: CDK9/cyclin T1 (Homo sapiens)
Sequence (P50750 whole entry): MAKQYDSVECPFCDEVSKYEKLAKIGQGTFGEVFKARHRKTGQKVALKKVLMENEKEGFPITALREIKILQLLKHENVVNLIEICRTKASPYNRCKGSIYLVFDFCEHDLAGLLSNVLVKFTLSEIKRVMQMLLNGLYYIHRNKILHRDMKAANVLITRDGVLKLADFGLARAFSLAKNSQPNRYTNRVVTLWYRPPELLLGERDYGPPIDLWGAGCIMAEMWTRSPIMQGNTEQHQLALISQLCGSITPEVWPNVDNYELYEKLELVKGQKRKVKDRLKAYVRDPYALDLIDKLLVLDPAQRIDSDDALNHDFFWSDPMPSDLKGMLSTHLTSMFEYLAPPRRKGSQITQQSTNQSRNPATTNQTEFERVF
Sequence (O60563 whole entry partner): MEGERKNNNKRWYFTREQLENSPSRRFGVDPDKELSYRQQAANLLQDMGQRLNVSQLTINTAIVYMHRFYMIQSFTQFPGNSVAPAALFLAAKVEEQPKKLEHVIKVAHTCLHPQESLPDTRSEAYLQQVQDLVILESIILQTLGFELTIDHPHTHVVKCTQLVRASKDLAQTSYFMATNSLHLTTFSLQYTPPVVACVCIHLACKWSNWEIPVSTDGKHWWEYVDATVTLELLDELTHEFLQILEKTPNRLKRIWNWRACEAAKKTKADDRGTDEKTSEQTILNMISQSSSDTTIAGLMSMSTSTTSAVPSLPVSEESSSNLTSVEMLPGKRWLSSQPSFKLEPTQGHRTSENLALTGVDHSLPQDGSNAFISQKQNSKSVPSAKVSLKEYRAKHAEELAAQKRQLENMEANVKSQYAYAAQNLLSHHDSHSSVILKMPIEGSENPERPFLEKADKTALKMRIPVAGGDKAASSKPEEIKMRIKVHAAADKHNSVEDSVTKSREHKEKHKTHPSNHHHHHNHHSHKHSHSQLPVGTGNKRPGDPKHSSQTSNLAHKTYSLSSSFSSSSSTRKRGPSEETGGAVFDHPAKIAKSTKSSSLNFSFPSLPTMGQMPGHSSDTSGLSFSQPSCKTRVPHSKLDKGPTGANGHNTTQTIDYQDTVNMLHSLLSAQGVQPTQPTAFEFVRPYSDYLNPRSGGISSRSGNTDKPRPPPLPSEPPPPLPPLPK
method.summary: CDK9 assay
Format: biochemical
assay.setup: Table 2; read-out: Kinase Inhibition IC50 CDK9 cyclin T1
Protocol: Kinase assays. […] This was achieved by measurement of incorporation of radioactive phosphate from ATP into appropriate polypeptide substrates. Recombinant protein kinases and kinase complexes were produced or obtained commercially. […] After washing 3 times with 75 mM aq orthophosphoric acid, plates were dried, scintillant added and incorporated radioactivity measured in a scintillation counter (TopCount, Packard Instruments, Pangbourne, Berks, UK). […]
Mark satisfied for IC50 under 500 nM, not satisfied if at or over.

compound="Cc1nc(C)c(-c2ccnc(Nc3ccc(NC(=O)CN4CCCC4)cc3)n2)s1 [Compound 53]" label_value=satisfied
compound="Cc1nc(NC(=O)[C@@H](N)CO)sc1-c1ccnc(Nc2cccc([N+](=O)[O-])c2)n1 [Compound 14]" label_value=satisfied
compound="CNc1nc(C)c(-c2ccnc(Nc3ccc(N4CCOCC4)cc3)n2)s1 [Compound 3]" label_value="not satisfied"
compound="Cc1nc(NC(=O)CCN)sc1-c1ccnc(Nc2cccc([N+](=O)[O-])c2)n1 [Compound 13]" label_value=satisfied
compound="Cc1nc(C)c(-c2ccnc(Nc3ccc(Cl)c(CO)c3)n2)s1 [Compound 72]" label_value="not satisfied"
compound="CCN(CC)CCNCCC(=O)Nc1nc(C)c(-c2ccnc(Nc3ccc(Cl)cc3)n2)s1 [Compound 36]" label_value="not satisfied"
compound="Cc1nc(NC(=O)CCN2CCOCC2)sc1-c1ccnc(Nc2ccc(Cl)cc2)n1 [Compound 35]" label_value="not satisfied"
compound="Cc1nc(C)c(-c2ccnc(Nc3ccc(NC(=O)Cn4ccnc4)cc3)n2)s1 [Compound 54]" label_value=satisfied
compound="Cc1nc(C)c(-c2ccnc(Nc3ccc(N4CCOCC4)cc3)n2)s1 [Compound 2]" label_value="not satisfied"
compound="COc1ccc(Nc2nccc(-c3sc(NC(=O)CCN4CCN(C)CC4)nc3C)n2)cc1 [Compound 40]" label_value="not satisfied"
compound="Cc1nc(NC(=O)CCN2CCN(C)CC2)sc1-c1ccnc(Nc2cccc([N+](=O)[O-])c2)n1 [Compound 23]" label_value=satisfied
compound="CCNc1nc(C)c(-c2ccnc(Nc3cccc(CNC(C)=O)c3)n2)s1 [Compound 64]" label_value=satisfied
compound="Cc1nc(N2CCOCC2)sc1-c1ccnc(Nc2ccc(N3CCOCC3)cc2)n1 [Compound 56]" label_value="not satisfied"
compound="Cc1nc(C)c(-c2ccnc(Nc3ccc(N4CCNCC4)cc3)n2)s1 [Compound 6]" label_value="not satisfied"
compound="CC(=O)N1CCN(c2ccc(Nc3nccc(-c4sc(C)nc4C)n3)cc2)CC1 [Compound 5]" label_value="not satisfied"
compound="COc1ccc(Nc2nccc(-c3sc(NC(=O)CCN4CCOCC4)nc3C)n2)cc1 [Compound 38]" label_value="not satisfied"
compound="Cc1nc(NC(=O)CCl)sc1-c1ccnc(Nc2cccc(Cl)c2)n1 [Compound 25]" label_value="not satisfied"
compound="Cc1nc(NC(=O)CCN2CCOCC2)sc1-c1ccnc(Nc2ccc(F)cc2)n1 [Compound 21]" label_value=satisfied
compound="CC(=O)Nc1ccc(Nc2nccc(-c3sc(C)nc3C)n2)cc1 [Compound 45]" label_value=satisfied
compound="CNc1nc(C)c(-c2ccnc(Nc3ccc(N4CCN(Cc5ccccc5)CC4)cc3)n2)s1 [Compound 11]" label_value="not satisfied"
compound="Cc1nc(C)c(-c2ccnc(Nc3ccc(NC(=O)CCl)cc3)n2)s1 [Compound 50]" label_value=satisfied
compound="COc1cccc(Nc2nccc(-c3sc(NC(=O)CCN4CCOCC4)nc3C)n2)c1 [Compound 39]" label_value="not satisfied"
compound="Cc1nc(NC(=O)CCl)sc1-c1ccnc(Nc2cccc([N+](=O)[O-])c2)n1 [Compound 24]" label_value=satisfied
compound="Cc1nc(NC(=O)CCCN)sc1-c1ccnc(Nc2cccc([N+](=O)[O-])c2)n1 [Compound 18]" label_value="not satisfied"
compound="CNc1nc(C)c(-c2ccnc(Nc3ccc(N4CCN(C(C)=O)CC4)cc3)n2)s1 [Compound 61]" label_value="not satisfied"
compound="Cc1nc(N2CCOCC2)sc1-c1ccnc(Nc2cccc([N+](=O)[O-])c2)n1 [Compound 71]" label_value="not satisfied"
compound="Cc1nc(N2CCOCC2)sc1-c1ccnc(Nc2cccc(O)c2)n1 [Compound 55]" label_value="not satisfied"
compound="Cc1nc(NS(C)(=O)=O)sc1-c1ccnc(Nc2cccc([N+](=O)[O-])c2)n1 [Compound 32]" label_value=satisfied
compound="CC[C@@H](N)C(=O)Nc1nc(C)c(-c2ccnc(Nc3cccc([N+](=O)[O-])c3)n2)s1 [Compound 16]" label_value=satisfied
compound="CNc1nc(C)c(-c2ccnc(Nc3cccc(CNC(C)=O)c3)n2)s1 [Compound 63]" label_value="not satisfied"
compound="CNc1nc(C)c(-c2ccnc(Nc3ccc(CCO)cc3)n2)s1 [Compound 59]" label_value=satisfied
compound="Cc1nc(NC(=O)CCN2CCOCC2)sc1-c1ccnc(Nc2cccc([N+](=O)[O-])c2)n1 [Compound 22]" label_value=satisfied
compound="Cc1nc(C)c(-c2ccnc(Nc3ccc(N4CCN(C)CC4)cc3)n2)s1 [Compound 12]" label_value=satisfied

* * *

System: HIV-1 (clinical paediatric strain RoJo or WeJo) in human PBMCs
method.summary: Anti-HIV efficacy evaluation in fresh human PBMCs
Format: cell-based
assay.setup: Human immunodeficiency virus 1, PBMC, 168 h; concentration inhibiting virus replication by 50%; seven days following infection
pIC50: −log10 of the molar value.
Property: pIC50; scope: individual molecules
observable: pIC50

structure_smiles_string=Cc1nc(N)sc1-c1ccnc(Nc2ccc(N3CCOCC3)cc2)n1 assay_result=5.88
structure_smiles_string=Cc1nc(NC(=O)[C@H](N)[C@@H](C)O)sc1-c1ccnc(Nc2cccc([N+](=O)[O-])c2)n1 assay_result=6.91
structure_smiles_string=Cc1nc(C)c(-c2ccnc(Nc3ccc(NC(=O)CN4CCCC4)cc3)n2)s1 assay_result=6.09
structure_smiles_string=CNc1nc(C)c(-c2ccnc(Nc3ccc(N4CCOCC4)cc3)n2)s1 assay_result=6.53
structure_smiles_string=CCNc1nc(C)c(-c2ccnc(Nc3ccc(N4CCOCC4)cc3)n2)s1 assay_result=6.78

* * *

experimental.target: CDK7/cyclin H (Homo sapiens)
Sequence (P50613 whole entry): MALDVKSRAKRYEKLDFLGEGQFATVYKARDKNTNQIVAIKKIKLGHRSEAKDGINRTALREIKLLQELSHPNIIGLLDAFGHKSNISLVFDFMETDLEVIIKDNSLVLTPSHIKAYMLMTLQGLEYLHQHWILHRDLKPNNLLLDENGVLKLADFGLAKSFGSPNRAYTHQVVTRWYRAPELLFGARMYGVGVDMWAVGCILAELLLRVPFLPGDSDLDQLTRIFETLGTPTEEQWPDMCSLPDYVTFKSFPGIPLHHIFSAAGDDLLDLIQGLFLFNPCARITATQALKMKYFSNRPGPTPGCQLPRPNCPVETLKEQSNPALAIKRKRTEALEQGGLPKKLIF
method.summary: CDK7 assay
Format: biochemical
assay.setup: Table 2; read-out: Kinase Inhibition IC50 CDK7 cyclin H
pIC50: −log10 of the molar value.
observable: pIC50

structure_smiles_string=Cc1nc(N2CCOCC2)sc1-c1ccnc(Nc2cccc([N+](=O)[O-])c2)n1 observable=pIC50 assay_result=5.62
structure_smiles_string=CCNc1nc(C)c(-c2ccnc(Nc3cccc(CO)c3)n2)s1 observable=pIC50 assay_result=6.32
structure_smiles_string=Cc1nc(C)c(-c2ccnc(Nc3ccc(N4CCN(CCOCCO)CC4)cc3)n2)s1 observable=pIC50 assay_result=5.66
structure_smiles_string=Cc1nc(C)c(-c2ccnc(Nc3ccc(N4CCOCC4)cc3)n2)s1 observable=pIC50 assay_result=4.01
structure_smiles_string=CC(=O)Nc1ccc(Nc2nccc(-c3sc(C)nc3C)n2)cc1 observable=pIC50 assay_result=4.77

* * *

Tested on: SK-N-MC
method.summary: 72-h MTT cytotoxicity assay SK-N-MC
Format: cell-based
assay.setup: Homo sapiens, Table 5, Neuroblastoma
observable: IC50

structure_smiles_string=Cc1nc(NC(=O)[C@H](N)[C@@H](C)O)sc1-c1ccnc(Nc2cccc([N+](=O)[O-])c2)n1 observable=IC50 assay_result="0.5 µM"
structure_smiles_string=Cc1nc(N)sc1-c1ccnc(Nc2ccc(N3CCOCC3)cc2)n1 observable=IC50 assay_result="0.3 µM"
structure_smiles_string=CNc1nc(C)c(-c2ccnc(Nc3ccc(N4CCN(Cc5ccccc5)CC4)cc3)n2)s1 observable=IC50 assay_result="0.6 µM"
structure_smiles_string=CC[C@@H](N)C(=O)Nc1nc(C)c(-c2ccnc(Nc3cccc([N+](=O)[O-])c3)n2)s1 observable=IC50 assay_result="0.4 µM"

* * *

experimental.target: CaMKII (calmodulin-depependent kinase II)
method.summary: Kinase assay CaMKII
Type: biochemical
assay.setup: Table 3 selectivity panel; read-out: Kinase specificity IC50 CaMKII
observable: IC50 (µM)

structure_smiles_string=CNc1nc(C)c(-c2ccnc(Nc3ccc(N4CCOCC4)cc3)n2)s1 experimental_target="CaMKII (calmodulin-depependent kinase II)" qualifier_sign=> assay_result=100
structure_smiles_string=Cc1nc(NC(=O)[C@H](N)[C@@H](C)O)sc1-c1ccnc(Nc2cccc([N+](=O)[O-])c2)n1 experimental_target="CaMKII (calmodulin-depependent kinase II)" qualifier_sign== assay_result=3.9
structure_smiles_string=CNc1nc(C)c(-c2ccnc(Nc3ccc(N4CCN(Cc5ccccc5)CC4)cc3)n2)s1 experimental_target="CaMKII (calmodulin-depependent kinase II)" qualifier_sign== assay_result=56
structure_smiles_string=CC[C@@H](N)C(=O)Nc1nc(C)c(-c2ccnc(Nc3cccc([N+](=O)[O-])c3)n2)s1 experimental_target="CaMKII (calmodulin-depependent kinase II)" qualifier_sign== assay_result=11
